test system: pyruvate kinase (Trypanosoma brucei); assay: qHTS of Trypanosoma Brucei Inhibitors: Confirmatory Assay for Cherry-picked Compounds; conditions: recombinant TbPYK, Kinase-Glo ATP luminescence; series mostly up to 76.9 µM; note: nearly all actives have a fitted effect of over 70% in size
Some of the results follow. Results filed as inconclusive are left out. Activity calls are given as the source filed them. Calls come from the whole dose curve; as a rule, active = well fitted inhibition curve with a large enough effect; inconclusive = small, poorly fitted or top-dose-only effect; inactive = no such curve, though single readings can be large or run the other way.
Outcome (select one): active, inactive

Sample answers from the record:
Qu. Look up the recorded call for O=C(CCCCCn1c(=S)[nH]c2ccsc2c1=O)NC1CCCCC1 in this test.
Ans. active

Qu. Short answer needed: outcome of this test for COCCNC(=O)Nc1ccc2nc(-c3ccco3)c(-c3ccco3)nc2c1 ?
Ans. active

Qu. Write down the call the test reported for this compound. Item: O=C(CSc1ccc(-c2ccco2)nn1)Nc1cccc(F)c1
Ans. active

Qu. I would be grateful if you could indicate the recorded call for O=c1ccc2c(-c3ccccc3S(=O)(=O)O)c3ccc(O)c(O)c3oc-2c1O .
Ans. active

Qu. Each compound tested received a call. Report the one for O=C(Nc1ccc(S(=O)(=O)N2CCOCC2)cc1)c1ccc2ncsc2c1 .
Ans. active

Qu. # lookup: test call for N#Cc1c(N2CCCCC2)nc(N)c2c(N)nc(SCC(=O)O)cc12
Ans. active

New cases:
Qu. Dear all, I need the recorded test outcome for Cc1ccc(/C=C/C(=O)Nc2ccc([N+](=O)[O-])c(NC(=O)/C=C/c3ccc(C)o3)c2)o1 , thank you.
Ans. active

Qu. Tell me the assay call for c1ccc(-c2nnc3n2NC(c2ccc4c(c2)OCO4)S3)cc1 (configuration not stated) please.
Ans. active

Qu. Identify the outcome logged in this assay for the compound shown: Cc1nc2ccc(S(=O)(=O)NCC(=O)O)cc2s1
Ans. active

Qu. # lookup: test call for COC(=O)/C=C\C(=O)Nc1cccc([N+](=O)[O-])c1
Ans. inactive

Qu. // outcome(item) with item = COc1cccc(C(=O)Nc2ccc(N3CCCC3)cc2)c1
Ans. active

Qu. What was the test verdict on NC(=O)c1c(Nc2nc3c(F)cccc3s2)sc2c1CCCC2 ?
Ans. active

Qu. Recorded test call requested for O=C1C=CC(=O)N1c1ccc(N2CCCCC2)cc1
Ans. active

Qu. Name the outcome recorded for Cc1cc(C#N)c(SCC(N)=O)nc1-c1ccc(F)cc1 in the assay.
Ans. active

====

system: pyruvate kinase (Trypanosoma brucei); test: qHTS of Trypanosoma Brucei Inhibitors: Confirmatory Assay for Cherry-picked Compounds; settings: recombinant TbPYK, Kinase-Glo ATP luminescence; series mostly up to 76.9 µM; note: nearly all actives have a fitted effect of over 70% in size; note: potency is the fitted concentration of half-maximal effect
The list shows a part of the results. Records with an inconclusive call do not appear. Activity calls are given as the source filed them. Calls follow the shape of the dose curve; as a rule, active = well fitted inhibition curve with a large enough effect; inconclusive = small, poorly fitted or top-dose-only effect; inactive = no such curve, though single readings can be large or run the other way.
Below: a set of entries, each annotated with reported Potency.

Here's what some known entries look like.
Qu. Please report Potency with pyruvate kinase (Trypanosoma brucei) for item O=c1[nH]c2ccccc2n2c(-c3ccccc3)nnc12 .
Ans. 126 nM (active)

Qu. Determine reported Potency for Cc1cccc(-n2c(N)c(C(=O)N3CCN(C)CC3)sc2=S)c1 ; test system: pyruvate kinase (Trypanosoma brucei).
Ans. 1000 nM (active)

***
Qu. State measured Potency of the compound C=CCn1c(=S)[nH]c2scc(-c3ccco3)c2c1=O with pyruvate kinase (Trypanosoma brucei).
Ans. 14100 nM (active)
